Entry source: patent US7994172B2

Biological target: human p70S6 kinase (p70S6K, kinase domain residues 1-421, T412E mutation) (Homo sapiens, UniProt P23443, T412E)
Construct: human p70S6 kinase domainresidues 1-421, containing a T412E mutation
Sequence (P23443 1-421 T412E): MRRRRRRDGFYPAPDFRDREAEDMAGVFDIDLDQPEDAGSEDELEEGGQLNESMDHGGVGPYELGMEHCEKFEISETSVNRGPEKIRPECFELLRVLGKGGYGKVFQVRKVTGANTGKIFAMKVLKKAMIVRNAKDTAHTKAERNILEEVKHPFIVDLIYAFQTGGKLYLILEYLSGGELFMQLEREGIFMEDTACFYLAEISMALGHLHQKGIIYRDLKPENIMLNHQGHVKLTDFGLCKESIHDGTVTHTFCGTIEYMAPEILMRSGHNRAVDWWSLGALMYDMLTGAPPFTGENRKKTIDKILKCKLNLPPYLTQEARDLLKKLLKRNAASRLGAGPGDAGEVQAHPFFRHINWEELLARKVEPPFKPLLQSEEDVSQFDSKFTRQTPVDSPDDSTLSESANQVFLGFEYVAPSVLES
Test: p70S6 kinase assay, Luciferase-Coupled Chemiluminescent Kinase assay (LCCA)
Conditions: 5 μM ATP, 12 nM p70S6K; read-out: p70S6K inhibition IC50
measurement_label: IC50

A selection of reference data follows.
compound: Clc1ccc(CC2CCN(c3ncnc4[nH]nc(Br)c34)CC2)cc1Cl [Entry 40]
measurement_label: IC50
reported: < 50 nM
--
compound: Brc1n[nH]c2ncnc(N3CCN(Cc4cccc(Oc5ccccc5)c4)CC3)c12 [Entry 53]
measurement_label: IC50
reported: 50 to 500 nM
--
compound: O=C(CN1CCN(c2ncnc3[nH]nc(Br)c23)CC1)N1CCOCC1 [Entry 75]
measurement_label: IC50
reported: > 2000 nM
--
compound: Clc1ccc(OC2CCN(c3ncnc4[nH]nc(Br)c34)CC2)c(NCCN2CCCC2)c1 [Entry 103]
measurement_label: IC50
reported: 50 to 500 nM

Lookup: Bench note: what IC50 did CCc1n[nH]c2ncnc(N3CCC([C@@H](OCCN(C)C)c4ccc(Cl)cc4)CC3)c12 [Entry 88] show?
Found: < 50 nM

Lookup: Also need CCN(CC)CCC(=O)NC(c1ccc(Cl)cc1)C1CCN(c2ncnc3[nH]nc(Br)c23)CC1 (stereo not drawn) [Entry 26] , thanks.
Found: < 50 nM

Lookup: Also need Cc1cccc(CN2CCN(c3ncnc4[nH]nc(Br)c34)CC2)c1 [Entry 54] , thanks.
Found: 50 to 500 nM

Lookup: Also need Clc1ccc([C@H](OCCN2CCCCC2)C2CCN(c3ncnc4[nH]nc(Br)c34)CC2)cc1 [Entry 93] , thanks.
Found: < 50 nM

Lookup: Also need CCN(CC)CCC(=O)N(c1ccc(Cl)cc1)C1CCN(c2ncnc3[nH]nc(Br)c23)CC1 [Entry 24] , thanks.
Found: < 50 nM

---

Biological target: human p70S6 kinase (p70S6K, kinase domain residues 1-421, T412E mutation) (Homo sapiens, UniProt P23443, T412E)
Construct: human p70S6 kinase domainresidues 1-421, containing a T412E mutation; made in house
Assay: p70S6 kinase assay, Luciferase-Coupled Chemiluminescent Kinase assay (LCCA)
Format: biochemical
Conditions: 5 μM ATP, 12 nM p70S6K; read-out: p70S6K inhibition IC50
Description: Kinase activity and compound inhibition are investigated using one or more of the three assay formats described below. The ATP concentrations for each assay are selected to be close to the Michaelis-Menten constant (KM) for each individual kinase. […] Biochemical activity of p70S6 kinase was assessed using a Luciferase-Coupled Chemiluminescent Kinase assay (LCCA) format. Kinase activity was measured as the percent ATP remaining following the kinase reaction. […]
pIC50: −log10 of the molar value.
measurement_label: pIC50

A selection of reference data follows.
compound: FC(F)(F)c1ccc(CN2CCN(c3ncnc4[nH]nc(Br)c34)CC2)cc1
pIC50: > 7.30
--
compound: Brc1n[nH]c2ncnc(N3CCN(CCc4cccs4)CC3)c12
pIC50: 5.70 to 6.30
--
compound: CN(C)CCCOC(c1ccc(Cl)cc1)C1CCN(c2ncnc3[nH]nc(Br)c23)CC1 (stereo not drawn)
pIC50: > 7.30

Lookup: Bench note: what pIC50 did `CCN(CC)CCCNC(=O)C1(Cc2ccc(Cl)cc2)CCN(c2ncnc3[nH]nc(Br)c23)CC1` show?
Found: > 7.30

Lookup: Also need `Brc1n[nH]c2ncnc(N3CCN(Cc4cccc(OCc5ccccc5)c4)CC3)c12` , thanks.
Found: 6.30 to 7.30

Lookup: Also need CCC(C)N1CCN(c2ncnc3[nH]nc(Br)c23)CC1 (stereo not drawn) , thanks.
Found: 5.70 to 6.30

Lookup: Also need `CN(C)C(=O)CN1CCN(c2ncnc3[nH]nc(Br)c23)CC1` , thanks.
Found: < 5.70

Lookup: Also need `Brc1ccc(CN2CCN(c3ncnc4[nH]nc(Br)c34)CC2)cc1` , thanks.
Found: > 7.30

Lookup: Also need `CCN(CC)CCO[C@@H](c1ccc(Cl)cc1)C1CCN(c2ncnc3[nH]nc(Br)c23)CC1` , thanks.
Found: > 7.30

Lookup: Also need CN(C)CCNC(=O)NC(c1ccc(Cl)cc1)C1CCN(c2ncnc3[nH]nc(Br)c23)CC1 (stereo not drawn) , thanks.
Found: > 7.30

Lookup: Also need CN(C)CCNC(=O)C(c1ccc(Cl)cc1)N1CCN(c2ncnc3[nH]nc(Br)c23)CC1 (stereo not drawn) , thanks.
Found: > 7.30

Lookup: Also need `COCCCN1CCN(c2ncnc3[nH]nc(Br)c23)CC1` , thanks.
Found: < 5.70
